Target: Adenosine receptor A1 (Homo sapiens, UniProt P30542)
Sequence (P30542 whole entry): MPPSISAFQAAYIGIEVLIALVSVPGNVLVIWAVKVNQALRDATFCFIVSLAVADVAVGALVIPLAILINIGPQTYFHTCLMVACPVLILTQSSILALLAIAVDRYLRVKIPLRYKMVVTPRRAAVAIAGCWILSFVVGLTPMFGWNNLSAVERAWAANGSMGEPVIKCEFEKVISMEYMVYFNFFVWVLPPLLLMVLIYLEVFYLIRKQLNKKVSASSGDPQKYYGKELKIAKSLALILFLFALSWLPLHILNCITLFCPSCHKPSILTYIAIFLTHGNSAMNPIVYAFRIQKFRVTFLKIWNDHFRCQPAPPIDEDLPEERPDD
Assay: Displacement of [3H]DPCPX from human recombinant adenosine A1 receptor expressed in CHOK1 cells
pKi: −log10 of the molar value.
measured-endpoint: pKi

// known answers, use as guide
                                chem_smiles  obs_value
0  CN(CCc1cccs1)c1nc(-c2ccco2)c(C(=O)c2ccccc2)s1     < 5.00
1  CN(Cc1ccco1)c1nc(-c2ccco2)c(C(=O)c2ccccc2)s1       5.47

// switching to the query compound
Input: If you can, please state the reported pKi value of `CN(C)c1nc(-c2ccco2)c(C(=O)c2ccccc2)s1` .
Output: < 5.00
